B1: TPR 5TU (parent)
chain: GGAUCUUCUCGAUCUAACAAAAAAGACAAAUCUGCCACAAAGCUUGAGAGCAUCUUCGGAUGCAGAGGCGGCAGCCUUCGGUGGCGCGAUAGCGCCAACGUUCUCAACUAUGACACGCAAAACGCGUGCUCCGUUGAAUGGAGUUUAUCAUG

Variants of: B1
assay.explanation: polymerase ribozyme fitness, log enrichment relative to wild type (log ratio); higher = more active; in vitro selection for triplet polymerase activity
Fewer inactive variants are shown than the library holds.
variants and their reported polymerase ribozyme fitness (log ratio)
Lab note: record the figure alone, no unit after it.

Field: example entries. Status: answers known.
C51A C85A U134C    -2.88
G46A C129U    -3.61
G81U G84A    -1.28
A19G G59U C76A C96U    -1.25

Noted for C103U U139A : its polymerase ribozyme fitness (log ratio) reads -3.96

GET /value?item= A20G G34A C118G A121C &field=polymerase ribozyme fitness (log ratio) returns -3.83

meta.source: the RNAGym collection of RNA variant scans (doi:10.1073/pnas.2313332121)
